Form field: concentration at 8 hr (one value per entry).
experiment: Pharmacokinetics of Nab-2 in monkeys; format: in vivo; details: male, blood; Nab-2 IV 20 mg/kg, cynomolgus monkey; time 8 hr; label = analyte
measure.name: concentration at 8 hr (ng/mL)

molecule="CCCCCC(=O)O[C@@H](C(=O)O[C@H]1C[C@@]2(O)[C@@H](OC(=O)c3ccccc3)C3[C@](C)(C(=O)[C@H](O)C(=C1C)C2(C)C)[C@@H](O)C[C@H]1OC[C@@]31OC(C)=O)[C@@H](NC(=O)OC(C)(C)C)c1ccccc1 (some centres unmarked) [Compound 2, 2′-Hexanoyl Docetaxel]" measure_name="concentration at 8 hr" unit_string=ng/mL observed_value=264
molecule="CC(=O)O[C@@]12CO[C@@H]1C[C@H](O)[C@@]1(C)C(=O)[C@H](O)C3=C(C)[C@@H](OC(=O)[C@H](O)[C@@H](NC(=O)OC(C)(C)C)c4ccccc4)C[C@@](O)([C@@H](OC(=O)c4ccccc4)C12)C3(C)C (some centres unmarked) [Docetaxel, docetaxel, reference compound]" measure_name="concentration at 8 hr" unit_string=ng/mL observed_value=0

* * *

assay: Pharmacokinetics of Nab-2 in monkeys; assay type: in vivo; conditions: male, blood; Nab-2 IV 10 mg/kg, cynomolgus monkey; time 1 hr; label = analyte
measure.name: concentration at 1 hr (ng/mL)

molecule="CC(=O)O[C@@]12CO[C@@H]1C[C@H](O)[C@@]1(C)C(=O)[C@H](O)C3=C(C)[C@@H](OC(=O)[C@H](O)[C@@H](NC(=O)OC(C)(C)C)c4ccccc4)C[C@@](O)([C@@H](OC(=O)c4ccccc4)C12)C3(C)C (some centres unmarked) [Docetaxel, docetaxel, reference compound]" measure_name="concentration at 1 hr" observed_value=47.5
molecule="CCCCCC(=O)O[C@@H](C(=O)O[C@H]1C[C@@]2(O)[C@@H](OC(=O)c3ccccc3)C3[C@](C)(C(=O)[C@H](O)C(=C1C)C2(C)C)[C@@H](O)C[C@H]1OC[C@@]31OC(C)=O)[C@@H](NC(=O)OC(C)(C)C)c1ccccc1 (some centres unmarked) [Compound 2, 2′-Hexanoyl Docetaxel]" measure_name="concentration at 1 hr" observed_value=734

* * *

assay: Pharmacokinetics of Nab-2 in monkeys; assay type: in vivo; conditions: male, blood; Nab-2 IV 5 mg/kg, cynomolgus monkey; time 2 hr; label = analyte
measure.name: concentration at 2 hr (ng/mL)

compound="CC(=O)O[C@@]12CO[C@@H]1C[C@H](O)[C@@]1(C)C(=O)[C@H](O)C3=C(C)[C@@H](OC(=O)[C@H](O)[C@@H](NC(=O)OC(C)(C)C)c4ccccc4)C[C@@](O)([C@@H](OC(=O)c4ccccc4)C12)C3(C)C (some centres unmarked) [Docetaxel, docetaxel, reference compound]" measure_name="concentration at 2 hr" observed_value=34.1
compound="CCCCCC(=O)O[C@@H](C(=O)O[C@H]1C[C@@]2(O)[C@@H](OC(=O)c3ccccc3)C3[C@](C)(C(=O)[C@H](O)C(=C1C)C2(C)C)[C@@H](O)C[C@H]1OC[C@@]31OC(C)=O)[C@@H](NC(=O)OC(C)(C)C)c1ccccc1 (some centres unmarked) [Compound 2, 2′-Hexanoyl Docetaxel]" measure_name="concentration at 2 hr" observed_value=422

* * *

Test: Pharmacokinetics of Nab-2 in monkeys
Assay type: in vivo
Conditions: male, blood; Nab-2 IV 10 mg/kg, cynomolgus monkey; time 0.25 hr; label = analyte
Procedure: The day of the initial dose administration was designated Study Day 1, with subsequent days consecutively numbered. Days on study prior to the initial dose administration were consecutively numbered with the final day of acclimation referenced as day −1. […] All animals were dosed once weekly, on days 1, 8 and 15. […] Clinical observations were performed twice daily and body weights were recorded weekly throughout the study.
Recorded concentration at 0.25 hr, one value per entry.
measure.name: concentration at 0.25 hr (ng/mL)

compound="CCCCCC(=O)O[C@@H](C(=O)O[C@H]1C[C@@]2(O)[C@@H](OC(=O)c3ccccc3)C3[C@](C)(C(=O)[C@H](O)C(=C1C)C2(C)C)[C@@H](O)C[C@H]1OC[C@@]31OC(C)=O)[C@@H](NC(=O)OC(C)(C)C)c1ccccc1 (some centres unmarked)" unit_string=ng/mL observed_value=1300
compound="CC(=O)O[C@@]12CO[C@@H]1C[C@H](O)[C@@]1(C)C(=O)[C@H](O)C3=C(C)[C@@H](OC(=O)[C@H](O)[C@@H](NC(=O)OC(C)(C)C)c4ccccc4)C[C@@](O)([C@@H](OC(=O)c4ccccc4)C12)C3(C)C (some centres unmarked) [Docetaxel, docetaxel, reference compound]" unit_string=ng/mL observed_value=70.1

Source: patent US20180289620A1
